# System: Human immunodeficiency virus 1
# METHOD_NOTES: Antiviral activity against HIV1 harboring wild type 8.9NSX with mutant amino acid 116 insertion infected in HEK293T cells assessed as inhibition of viral replication after 48 hrs by luciferase assay
# Assay type: functional, organism-based
# EXPERIMENTAL_PARAMETERS: HEK-293T
The source made the active and inactive calls. The calls are words filed in the database; no cut-off is given here.

COMPOUND_STRING	inhibition
COC(=O)N[C@H](C(=O)N[C@@H](Cc1ccccc1)[C@@H](O)CN(Cc1ccc(-c2ccccn2)cc1)NC(=O)[C@@H](NC(=O)OC)C(C)(C)C)C(C)(C)C	inactive
CC(C)CN(C[C@@H](O)[C@H](Cc1ccccc1)NC(=O)O[C@H]1CCOC1)S(=O)(=O)c1ccc(N)cc1	inactive
Cc1cccc(C)c1OCC(=O)N[C@@H](Cc1ccccc1)[C@@H](O)C[C@H](Cc1ccccc1)NC(=O)[C@H](C(C)C)N1CCCNC1=O	inactive
